Cited source for all entries: paper PMC10397247

Target: T1, 4H968-bN
T1 chain: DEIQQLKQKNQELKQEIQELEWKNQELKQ
Assay: two-hybrid library CCNG1;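 note: natural log of median RNA to DNA barcode read ratio; higher means stronger binding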
READOUT_KIND: interaction score

| BINDER | OBSERVED |
| --- | --- |
| DKIQQLKQENQELEQEIQELKWKIQELKQ [4H2702-bN] | 1.31 |
| DKNQQLEQKIQELKQKIQELEWENQELEQ [4H3427-bN] | -1.97 |
| DKNQQLKQKNQELKQKIQELKWEIQELEQ [4H4073-bN] | -1.13 |
| DENAQLEQENAELEQKIAELKWEIAQLEQ [4H1193-bA] | 1.16 |
| DEIQQLKQKNQELEQENQELEWKIQELKQ [4H918-bN] | -0.218 |
| DEIQQLKQKIQELEQENQELKWKIQELEQ [4H797-bN] | -1.06 |
| DEIQQLEQENQELEQKIQELKWEIQELKQ [4H170-bN] | 1.15 |
